Target or system Histamine H3 receptor (Homo sapiens); metric IC50; compiled from varied reports.
Report the figure in nM without appending any unit label.

Fill in the blank: the reported IC50 of COc1cc2c(cc1OC)C(=O)C(CC1CCN(Cc3ccccc3)CC1)C2 (centres undefined) is ____. 350

Fill in the blank: the reported IC50 of O=C(NCCc1ccc(OCCN2CCOCC2)c(Br)c1)c1ccc[nH]1 is ____. 59200

Fill in the blank: the reported IC50 of CC1CCCN1CCOc1ccc(CCNC(=O)c2cc(Br)cs2)cc1Br (single isomer, unassigned; enantiomer 1) is ____. 710

Fill in the blank: the reported IC50 of O=C(NCCc1ccc(OCCN2CCC(F)C2)c(Br)c1)c1cc(Br)cs1 (stereo in doubt; 18d) is ____. 2520

Fill in the blank: the reported IC50 of CN1CCCC(COc2ccc(CCNC(=O)c3cc(Br)c[nH]3)cc2Br)C1 (centres undefined) is ____. 2940

Fill in the blank: the reported IC50 of O=C(NCCc1ccc(OCCN2CCOCC2)c(Br)c1)c1cc(Br)cs1 is ____. 30400

Fill in the blank: the reported IC50 of Cc1ncc(C(=O)NCCN2CCCC2(C)C)cc1NC(=O)c1cnn2cc(-c3cnn(C)c3)ccc12 is ____. 5000

Fill in the blank: the reported IC50 of CN(C)CCOc1ccc(CCNC(=O)c2cc(Br)cs2)cc1Br is ____. 1520
